- Test system: Escherichia coli
- Test method notes: Antibacterial activity against Escherichia coli ATCC 25922 after 24 hrs by two fold serial dilution method
- Assay type: functional
- Condition description: ATCC 25922, 24 h
MIC reference

- Compound: "CC(=N\\NC(=O)COc1ccc2ccccc2c1)/C(=N\\Nc1ccc(Cl)cc1)S(=O)(=O)c1ccccc1"
  Tested target: "Escherichia coli"
  MIC / µg/mL: 8.25
- Compound: "CC(=N/NC(=O)COc1ccc2ccccc2c1)/C(Cl)=N\\Nc1ccc(Cl)cc1"
  Tested target: "Escherichia coli"
  MIC / µg/mL: 16.5
- Compound: "O=C(O)c1cn(C2CC2)c2cc(N3CCNCC3)c(F)cc2c1=O [CIPROFLOXACIN]"
  Tested target: "Escherichia coli"
  MIC / µg/mL: 16.5
- Compound: "CC(=N/NC(=O)COc1ccc(Cl)cc1Cl)/C(=N\\Nc1ccc(Cl)cc1)S(=O)(=O)c1ccccc1"
  Tested target: "Escherichia coli"
  MIC / µg/mL: 4.12

---

- System: Priestia megaterium
- Test method notes: Antibacterial activity against Bacillus megaterium after 24 hrs by agar well diffusion method
- Type: functional
Active and inactive are the calls of the source. The rule behind the calls is not given here.
Assay readout: diameter of the inhibition zone (DIZ)

- Record smiles: "CC(=N/NC(=O)COc1ccc(Cl)cc1Cl)/C(Cl)=N\\Nc1ccc(Br)cc1"
  Assay readout: "diameter of the inhibition zone (DIZ)"
  Observed result: "22 mm"
- Record smiles: "O=C(COc1ccc2ccccc2c1)NNCC(=O)Nc1nccs1"
  Assay readout: "diameter of the inhibition zone (DIZ)"
  Observed result: "22 mm"
- Record smiles: "CC(=N/NC(=O)COc1ccc(Cl)cc1Cl)/C(=N\\Nc1ccc(Br)cc1)Sc1ccccc1"
  Assay readout: "diameter of the inhibition zone (DIZ)"
  Observed result: "20 mm"
- Record smiles: "CC(=N/NC(=O)COc1ccc(Cl)cc1Cl)/C(=N\\Nc1ccc(Cl)cc1)S(=O)(=O)c1ccccc1"
  Assay readout: "diameter of the inhibition zone (DIZ)"
  Observed result: "32 mm"
- Record smiles: "O=C(COc1ccc2ccccc2c1)NN/C=C(\\NNC(=O)COc1ccc2ccccc2c1)c1cc2ccccc2oc1=O"
  Assay readout: "diameter of the inhibition zone (DIZ)"
  Observed result: "20 mm"
- Record smiles: "CC(=N/NC(=O)COc1ccc(Cl)cc1Cl)/C(=N\\Nc1ccc(Cl)cc1)Sc1ccccc1"
  Assay readout: "diameter of the inhibition zone (DIZ)"
  Observed result: "inactive"
- Record smiles: "CC(=N/NC(=O)COc1ccc2ccccc2c1)/C(Cl)=N\\Nc1ccc(Br)cc1"
  Assay readout: "diameter of the inhibition zone (DIZ)"
  Observed result: "21 mm"
- Record smiles: "CC(=N/NC(=O)COc1ccc2ccccc2c1)/C(Cl)=N\\Nc1ccc(Cl)cc1"
  Assay readout: "diameter of the inhibition zone (DIZ)"
  Observed result: "inactive"
- Record smiles: "CC(=N\\NC(=O)COc1ccc2ccccc2c1)/C(=N\\Nc1ccc(Cl)cc1)S(=O)(=O)c1ccccc1"
  Assay readout: "diameter of the inhibition zone (DIZ)"
  Observed result: "23 mm"
- Record smiles: "CC(=N/NC(=O)COc1ccc(Cl)cc1Cl)/C(Cl)=N\\Nc1ccc(Cl)cc1"
  Assay readout: "diameter of the inhibition zone (DIZ)"
  Observed result: "20 mm"

---

- Test system: Mycolicibacterium phlei
- Test method notes: Antibacterial activity against Mycobacterium phlei after 24 hrs by agar well diffusion method
- Format: functional
Activity calls are given as the source filed them. No cut-off for these calls is given here.
Assay readout: diameter of the inhibition zone (DIZ)

- Record smiles: "O=C(COc1ccc2ccccc2c1)NN/C=C(\\NNC(=O)COc1ccc2ccccc2c1)c1cc2ccccc2oc1=O"
  Assay readout: "diameter of the inhibition zone (DIZ)"
  Observed result: "inactive"
- Record smiles: "O=C(COc1ccc2ccccc2c1)NNCC(=O)Nc1nccs1"
  Assay readout: "diameter of the inhibition zone (DIZ)"
  Observed result: "inactive"
- Record smiles: "CC(=N/NC(=O)COc1ccc2ccccc2c1)/C(Cl)=N\\Nc1ccc(Cl)cc1"
  Assay readout: "diameter of the inhibition zone (DIZ)"
  Observed result: "16 mm"
- Record smiles: "CC(=N/NC(=O)COc1ccc(Cl)cc1Cl)/C(=N\\Nc1ccc(Cl)cc1)Sc1ccccc1"
  Assay readout: "diameter of the inhibition zone (DIZ)"
  Observed result: "13 mm"
- Record smiles: "CC(=N/NC(=O)COc1ccc(Cl)cc1Cl)/C(Cl)=N\\Nc1ccc(Br)cc1"
  Assay readout: "diameter of the inhibition zone (DIZ)"
  Observed result: "inactive"
- Record smiles: "CC(=N/NC(=O)COc1ccc2ccccc2c1)/C(Cl)=N\\Nc1ccc(Br)cc1"
  Assay readout: "diameter of the inhibition zone (DIZ)"
  Observed result: "inactive"
- Record smiles: "CC(=N/NC(=O)COc1ccc(Cl)cc1Cl)/C(=N\\Nc1ccc(Cl)cc1)S(=O)(=O)c1ccccc1"
  Assay readout: "diameter of the inhibition zone (DIZ)"
  Observed result: "30 mm"
- Record smiles: "CC(=N/NC(=O)COc1ccc(Cl)cc1Cl)/C(=N\\Nc1ccc(Br)cc1)Sc1ccccc1"
  Assay readout: "diameter of the inhibition zone (DIZ)"
  Observed result: "inactive"
- Record smiles: "CC(=N/NC(=O)COc1ccc(Cl)cc1Cl)/C(Cl)=N\\Nc1ccc(Cl)cc1"
  Assay readout: "diameter of the inhibition zone (DIZ)"
  Observed result: "15 mm"
- Record smiles: "CC(=N\\NC(=O)COc1ccc2ccccc2c1)/C(=N\\Nc1ccc(Cl)cc1)S(=O)(=O)c1ccccc1"
  Assay readout: "diameter of the inhibition zone (DIZ)"
  Observed result: "inactive"
